Cited source for all entries: paper PMC9370761

Assay: Metabolic stability in mouse liver microsomes
Assay type: in vitro ADME
Conditions: 37 °C, read-out: Half-life (T1/2)
measure.name: half-life at 0.5 µM (min)

Q) What value of half-life at 0.5 µM has been reported for the following compound? O=C(N[C@@H](COC(=O)[C@H](Cc1ccccc1)NC(=O)c1ccccc1)Cc1ccccc1)c1ccccc1 [Auranamide]
A) 4.5

Q) Endpoint output: half-life at 0.5 µM of CC(=O)NC(COC(=O)C(Cc1ccccc1)NC(=O)c1ccccc1)Cc1ccccc1 (centres unmarked) [Patriscabratine] . Value?
A) 3.9

----------
Experiment: Metabolic stability in rat liver microsomes
Assay type: in vitro ADME
Settings: 37 °C, read-out: Half-life (T1/2)
measure.name: half-life at 0.5 µM (min)

Q) Using the record for O=C(N[C@@H](COC(=O)[C@H](Cc1ccccc1)NC(=O)c1ccccc1)Cc1ccccc1)c1ccccc1 [Auranamide] , report its half-life at 0.5 µM.
A) 4.23

Q) Returns the measured half-life at 0.5 µM for the input compound. Input: CC(=O)NC(COC(=O)C(Cc1ccccc1)NC(=O)c1ccccc1)Cc1ccccc1 (centres unmarked)
A) 3.93
